Entry source: patent US11440905B2

Attribute: remaining activity at 3 µM
Molecular target: UniProt O08665
Sequence (O08665 21-772): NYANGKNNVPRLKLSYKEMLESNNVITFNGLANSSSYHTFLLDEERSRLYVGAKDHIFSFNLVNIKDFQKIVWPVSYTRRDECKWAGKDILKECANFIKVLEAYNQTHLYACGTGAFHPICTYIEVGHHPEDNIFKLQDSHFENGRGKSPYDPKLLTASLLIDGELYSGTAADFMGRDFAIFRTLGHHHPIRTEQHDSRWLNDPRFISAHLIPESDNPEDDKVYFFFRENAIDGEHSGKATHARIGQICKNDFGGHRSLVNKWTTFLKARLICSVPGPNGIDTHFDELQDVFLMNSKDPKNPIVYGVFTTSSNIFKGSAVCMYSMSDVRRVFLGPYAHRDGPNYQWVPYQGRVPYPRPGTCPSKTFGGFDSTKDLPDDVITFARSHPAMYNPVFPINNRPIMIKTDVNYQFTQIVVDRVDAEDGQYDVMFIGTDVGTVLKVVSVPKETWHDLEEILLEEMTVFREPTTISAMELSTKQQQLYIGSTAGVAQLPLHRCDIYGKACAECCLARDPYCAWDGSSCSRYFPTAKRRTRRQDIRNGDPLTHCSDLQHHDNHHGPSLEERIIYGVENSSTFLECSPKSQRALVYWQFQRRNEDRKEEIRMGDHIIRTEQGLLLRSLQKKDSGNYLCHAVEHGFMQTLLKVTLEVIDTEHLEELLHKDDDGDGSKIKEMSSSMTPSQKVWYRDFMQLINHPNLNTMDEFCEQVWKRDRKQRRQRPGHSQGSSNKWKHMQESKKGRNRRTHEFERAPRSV
Test: Inhibitory activity for the collapse activity caused by Sema3A (growth cone collapse assay, Test 1)
Type: cell-based
Conditions: 3 μM test compound; chick embryo dorsal root ganglion; 3 units/mL mouse Sema3A; smaller value = more potent inhibition; read-out: residual ratio (%) of Sema3A activity (collapse assay)
Give the value, in units of %, as a plain number.

{"smiles_str": "Cn1cc(-c2coc3cc(O)c(O)c(C(=O)OCC(=O)N[C@@H](CCC(=O)O)C(=O)O)c3c2=O)c(=O)c2cc(O)c(O)cc21", "study_target": "UniProt O08665", "remaining activity at 3 µM [%]": 0}

Exam item: Which value of remaining activity at 3 µM has been reported for Cn1cc(-c2coc3cc(O)c(O)c(C(=O)O)c3c2=O)c(=O)c2cc(O)c(O)cc21 in the records?
Marked response: 4.6
